- Test system: Candida tropicalis
- experimentalProtocol: In vitro antifungal activity against Candida tropicalis (CT 750)
- Assay type: functional
propertyLabel: MIC (µg/mL)

{"molecule": "CO[C@H]1C[C@@H]2CC[C@@H](C)[C@@](O)(O2)C(=O)C(=O)N2CCCC[C@H]2C(=O)O[C@H]([C@H](C)C[C@@H]2CC[C@H](n3cnnn3)[C@H](OC)C2)CC(=O)[C@H](C)/C=C(\\C)[C@@H](O)[C@@H](OC)C(=O)[C@H](C)C[C@H](C)CCCC/C=C/1C", "qualifierOperator": ">", "quantitativeResult": 100}
{"molecule": "CO[C@@H]1C[C@H](C[C@@H](C)[C@@H]2CC(=O)[C@H](C)/C=C(\\C)[C@@H](O)[C@@H](OC)C(=O)[C@H](C)C[C@H](C)/C=C/C=C/C=C(\\C)[C@H](N(O)C(=O)OC(C)C)C[C@@H]3CC[C@@H](C)[C@@](O)(O3)C(=O)C(=O)N3CCCC[C@H]3C(=O)O2)CC[C@H]1O", "qualifierOperator": "=", "quantitativeResult": 25}
{"molecule": "COC(=O)N(O)[C@H]1C[C@@H]2CC[C@@H](C)[C@@](O)(O2)C(=O)C(=O)N2CCCC[C@H]2C(=O)O[C@H]([C@H](C)C[C@@H]2CC[C@@H](O)[C@H](OC)C2)CC(=O)[C@H](C)/C=C(\\C)[C@@H](O)[C@@H](OC)C(=O)[C@H](C)C[C@H](C)/C=C/C=C/C=C/1C", "qualifierOperator": "=", "quantitativeResult": 25}
{"molecule": "COC(=O)N(O)[C@@H]1C[C@@H]2CC[C@@H](C)[C@@](O)(O2)C(=O)C(=O)N2CCCC[C@H]2C(=O)O[C@H]([C@H](C)C[C@@H]2CC[C@@H](O)[C@H](OC)C2)CC(=O)[C@H](C)/C=C(\\C)[C@@H](O)[C@@H](OC)C(=O)[C@H](C)C[C@H](C)/C=C/C=C/C=C/1C", "qualifierOperator": "=", "quantitativeResult": 3.12}
{"molecule": "CO[C@H]1C[C@@H]2CC[C@@H](C)[C@@](O)(O2)C(=O)C(=O)N2CCCC[C@H]2C(=O)O[C@H]([C@H](C)C[C@@H]2CCC(O)[C@H](OC)C2)CC(=O)[C@H](C)/C=C(\\C)[C@@H](O)[C@@H](OC)C(=O)[C@H](C)C[C@H](C)CCCC/C=C/1C (single isomer, unassigned; 3)", "qualifierOperator": "=", "quantitativeResult": 1.56}
{"molecule": "CO[C@H]1C[C@@H]2CC[C@@H](C)[C@@](O)(O2)C(=O)C(=O)N2CCCC[C@H]2C(=O)O[C@H]([C@H](C)C[C@@H]2CC[C@@H](OC(=O)N(C)C)[C@H](OC)C2)CC(=O)[C@H](C)/C=C(\\C)[C@@H](O)[C@@H](OC)C(=O)[C@H](C)C[C@H](C)CCCC/C=C/1C", "qualifierOperator": ">", "quantitativeResult": 100}

====

- Test system: Pichia kudriavzevii
- experimentalProtocol: In vitro antifungal activity against Candida krusei (CK 28838)
- Format: functional
Reported values of MIC for individual entries

{"compound": "COC(=O)N[C@@H]1C[C@@H]2CC[C@@H](C)[C@@](O)(O2)C(=O)C(=O)N2CCCC[C@H]2C(=O)O[C@H]([C@H](C)C[C@@H]2CC[C@@H](O)[C@H](OC)C2)CC(=O)[C@H](C)/C=C(\\C)[C@@H](O)[C@@H](OC)C(=O)[C@H](C)C[C@H](C)/C=C/C=C/C=C/1C", "MIC": "0.78 mg/L"}
{"compound": "CO[C@@H]1C[C@H](C[C@@H](C)[C@@H]2CC(=O)[C@H](C)/C=C(\\C)[C@@H](O)[C@@H](OC)C(=O)[C@H](C)C[C@H](C)/C=C/C=C/C=C(\\C)[C@H](O)C[C@@H]3CC[C@@H](C)[C@@](O)(O3)C(=O)C(=O)N3CCCC[C@H]3C(=O)O2)CC[C@H]1O", "MIC": "0.78 mg/L"}
{"compound": "CO[C@H]1C[C@@H]2CC[C@@H](C)[C@@](O)(O2)C(=O)C(=O)N2CCCC[C@H]2C(=O)O[C@H]([C@H](C)C[C@@H]2CCC(O)[C@H](OC)C2)CC(=O)[C@H](C)/C=C(\\C)[C@@H](O)[C@@H](OC)C(=O)[C@H](C)C[C@H](C)CCCC/C=C/1C (single isomer, unassigned; 2)", "MIC": "1.56 mg/L"}
{"compound": "CCCCOC(=O)N(O)[C@@H]1C[C@@H]2CC[C@@H](C)[C@@](O)(O2)C(=O)C(=O)N2CCCC[C@H]2C(=O)O[C@H]([C@H](C)C[C@@H]2CC[C@@H](O)[C@H](OC)C2)CC(=O)[C@H](C)/C=C(\\C)[C@@H](O)[C@@H](OC)C(=O)[C@H](C)C[C@H](C)/C=C/C=C/C=C/1C", "MIC": "0.78 mg/L"}
{"compound": "CCCCOC(=O)N(O)[C@H]1C[C@@H]2CC[C@@H](C)[C@@](O)(O2)C(=O)C(=O)N2CCCC[C@H]2C(=O)O[C@H]([C@H](C)C[C@@H]2CC[C@@H](O)[C@H](OC)C2)CC(=O)[C@H](C)/C=C(\\C)[C@@H](O)[C@@H](OC)C(=O)[C@H](C)C[C@H](C)/C=C/C=C/C=C/1C", "MIC": "1.56 mg/L"}
{"compound": "CO[C@@H]1C[C@H](C[C@@H](C)[C@@H]2CC(=O)[C@H](C)/C=C(\\C)[C@@H](O)[C@@H](OC)C(=O)[C@H](C)C[C@H](C)/C=C/C=C/C=C(\\C)[C@H](N(O)C(=O)N3CCOCC3)C[C@@H]3CC[C@@H](C)[C@@](O)(O3)C(=O)C(=O)N3CCCC[C@H]3C(=O)O2)CC[C@H]1O", "MIC": "6.25 mg/L"}
{"compound": "COC(=O)N(O)[C@H]1C[C@@H]2CC[C@@H](C)[C@@](O)(O2)C(=O)C(=O)N2CCCC[C@H]2C(=O)O[C@H]([C@H](C)C[C@@H]2CC[C@@H](O)[C@H](OC)C2)CC(=O)[C@H](C)/C=C(\\C)[C@@H](O)[C@@H](OC)C(=O)[C@H](C)C[C@H](C)/C=C/C=C/C=C/1C", "MIC": "1.56 mg/L"}

====

- Test system: Candida tropicalis
- experimentalProtocol: In vitro antifungal activity against Candida tropicalis (CT 750)
- Format: functional
Reported values of MIC for individual entries

{"moleculeSmiles": "CO[C@@H]1C[C@H](C[C@@H](C)[C@@H]2CC(=O)[C@H](C)/C=C(\\C)[C@@H](O)[C@@H](OC)C(=O)[C@H](C)C[C@H](C)/C=C/C=C/C=C(\\C)[C@@H](N(O)C(=O)Oc3ccccc3)C[C@@H]3CC[C@@H](C)[C@@](O)(O3)C(=O)C(=O)N3CCCC[C@H]3C(=O)O2)CC[C@H]1O", "systemTested": "Candida tropicalis", "unitLabel": "µg/mL", "MIC": 12.5}
{"moleculeSmiles": "CO[C@@H]1C[C@H](C[C@@H](C)[C@@H]2CC(=O)[C@H](C)/C=C(\\C)[C@@H](O)[C@@H](OC)C(=O)[C@H](C)C[C@H](C)/C=C/C=C/C=C(\\C)[C@H](N(OC)C(=O)N(C)C)C[C@@H]3CC[C@@H](C)[C@@](O)(O3)C(=O)C(=O)N3CCCC[C@H]3C(=O)O2)CC[C@H]1O", "systemTested": "Candida tropicalis", "unitLabel": "µg/mL", "MIC": 50}
{"moleculeSmiles": "CO[C@@H]1C[C@H](C[C@@H](C)[C@@H]2CC(=O)[C@H](C)/C=C(\\C)[C@@H](O)[C@@H](OC)C(=O)[C@H](C)C[C@H](C)/C=C/C=C/C=C(\\C)[C@H](N(O)C(C)=O)C[C@@H]3CC[C@@H](C)[C@@](O)(O3)C(=O)C(=O)N3CCCC[C@H]3C(=O)O2)CC[C@H]1O", "systemTested": "Candida tropicalis", "unitLabel": "µg/mL", "MIC": 6.25}

====

- System: Pichia kudriavzevii
- experimentalProtocol: In vitro antifungal activity against Candida krusei (CK 28838)
- Format: functional

{"compound": "CO[C@H]1C[C@@H]2CC[C@@H](C)[C@@](O)(O2)C(=O)C(=O)N2CCCC[C@H]2C(=O)O[C@H]([C@H](C)C[C@@H]2CC[C@H](n3cnnn3)[C@H](OC)C2)CC(=O)[C@H](C)/C=C(\\C)[C@@H](O)[C@@H](OC)C(=O)[C@H](C)C[C@H](C)CCCC/C=C/1C", "qualifierOperator": ">", "MIC [µg/mL]": 100}
{"compound": "CCCOC(=O)N(O)[C@H]1C[C@@H]2CC[C@@H](C)[C@@](O)(O2)C(=O)C(=O)N2CCCC[C@H]2C(=O)O[C@H]([C@H](C)C[C@@H]2CC[C@@H](O)[C@H](OC)C2)CC(=O)[C@H](C)/C=C(\\C)[C@@H](O)[C@@H](OC)C(=O)[C@H](C)C[C@H](C)/C=C/C=C/C=C/1C", "qualifierOperator": "=", "MIC [µg/mL]": 0.78}
{"compound": "CO[C@H]1C[C@@H]2CC[C@@H](C)[C@@](O)(O2)C(=O)C(=O)N2CCCC[C@H]2C(=O)O[C@H]([C@H](C)C[C@@H]2CC[C@@H](OC(=O)N3CCNCC3)[C@H](OC)C2)CC(=O)[C@H](C)/C=C(\\C)[C@@H](O)[C@@H](OC)C(=O)[C@H](C)C[C@H](C)CCCC/C=C/1C", "qualifierOperator": ">", "MIC [µg/mL]": 100}
{"compound": "CO[C@H]1C[C@@H]2CC[C@@H](C)[C@@](O)(O2)C(=O)C(=O)N2CCCC[C@H]2C(=O)O[C@H]([C@H](C)C[C@@H]2CC[C@@H](OC(=O)c3ccc([N+](=O)[O-])cc3)[C@H](OC)C2)CC(=O)[C@H](C)/C=C(\\C)[C@@H](O)[C@@H](OC)C(=O)[C@H](C)C[C@H](C)CCCC/C=C/1C", "qualifierOperator": ">", "MIC [µg/mL]": 100}
{"compound": "COC(=O)N(O)[C@@H]1C[C@@H]2CC[C@@H](C)[C@@](O)(O2)C(=O)C(=O)N2CCCC[C@H]2C(=O)O[C@H]([C@H](C)C[C@@H]2CC[C@@H](O)[C@H](OC)C2)CC(=O)[C@H](C)/C=C(\\C)[C@@H](O)[C@@H](OC)C(=O)[C@H](C)C[C@H](C)/C=C/C=C/C=C/1C", "qualifierOperator": "=", "MIC [µg/mL]": 0.39}
{"compound": "CO[C@H]1C[C@@H]2CC[C@@H](C)[C@@](O)(O2)C(=O)C(=O)N2CCCC[C@H]2C(=O)O[C@H]([C@H](C)C[C@@H]2CCC(O)[C@H](OC)C2)CC(=O)[C@H](C)/C=C(\\C)[C@@H](O)[C@@H](OC)C(=O)[C@H](C)C[C@H](C)CCCC/C=C/1C (single isomer, unassigned; 3)", "qualifierOperator": "=", "MIC [µg/mL]": 0.78}
{"compound": "CO[C@H]1C[C@@H]2CC[C@@H](C)[C@@](O)(O2)C(=O)C(=O)N2CCCC[C@H]2C(=O)O[C@H]([C@H](C)C[C@@H]2CC[C@@H](OC(=O)N3CCCCC3)[C@H](OC)C2)CC(=O)[C@H](C)/C=C(\\C)[C@@H](O)[C@@H](OC)C(=O)[C@H](C)C[C@H](C)CCCC/C=C/1C", "qualifierOperator": ">", "MIC [µg/mL]": 100}
